# Test system: Staphylococcus aureus
# TEST DESCRIPTION: Antibacterial activity against methicillin-resistant Staphylococcus aureus MRSA252 measured after overnight incubation by microbroth dilution method
# Assay type: functional
For each of the molecules below, state its MIC.
Give bare numbers, in µg/mL.

// known answers, use as guide
INSERT INTO measurements (molecule, unit_text, numeric_value) VALUES
  ('Cc1ccc(CNCc2cc(C)n(-c3ccc(Cl)cc3)c2C)cc1', 'µg/mL', 64),
  ('Cc1cc(CN2CCN(C3CC4CCC3C4)CC2)c(C)n1-c1ccc(Cl)cc1 (configuration not stated)', 'µg/mL', 64),
  ('Cc1cc(CNC2C3CC4CC(C3)CC2C4)c(C)n1-c1ccc(Cl)cc1 (configuration not stated)', 'µg/mL', 128),
  ('Cc1cc(CNCCc2ccccc2)c(C)n1-c1ccc(Cl)cc1', 'µg/mL', 32),
  ('Cc1cc(CN2CCN(C3C4CC5CC(C4)CC3C5)CC2)c(C)n1-c1ccc(Cl)cc1 (configuration not stated)', 'µg/mL', 32);

Required: MIC, one value per molecule below.
1. Cc1cc(CN2CCN(C3C4CC5CC(C4)CC3C5)CC2)c(C)n1-c1ccc(C(C)C)cc1 (configuration not stated)
2. Cc1cc(CN2CCN(C3C4CC5CC(C4)CC3C5)CC2)c(C)n1-c1ccccc1F (configuration not stated)

## Result
1: 32; 2: 32

====

For each of the compounds below, state its MIC.
# Tested on: Klebsiella pneumoniae
# TEST DESCRIPTION: Antibacterial activity against Klebsiella pneumoniae M6 measured after overnight incubation by microbroth dilution method
# Type: functional

Sample records with MIC:
INSERT INTO measurements (compound, measurement_kind, result) VALUES
  ('Cc1c(CNC2CCCCC2)cc(-c2ccc(Cl)cc2)n1-c1ccccc1C(F)(F)F', 'MIC', '> 128 µg/mL'),
  ('Cc1c(CNCCNc2ccccc2)cc(-c2ccc(Cl)cc2)n1-c1ccc(Cl)cc1', 'MIC', '> 128 µg/mL'),
  ('Cc1c(CNC2CCCCC2)cc(-c2ccc(Cl)cc2)n1-c1ccc(O)cc1', 'MIC', '> 128 µg/mL');

Dear reader, for each entry below, please note its MIC.
1. Cc1c(CNC2CCCCCC2)cc(-c2ccc(Cl)cc2)n1-c1ccc(Cl)cc1
2. Cc1c(CNC2CCC(N)CC2)cc(-c2ccc(Cl)cc2)n1-c1ccc(Cl)cc1 (stereo not given)

## Result
["> 128 µg/mL", "16 µg/mL"]

====

# Test system: Staphylococcus aureus
# TEST DESCRIPTION: Antibacterial activity against methicillin resistant Staphylococcus aureus NCTC13616 measured after overnight incubation by microbroth dilution method
# Type: functional
MEASUREMENT KIND: MIC (µg/mL)
Give bare numbers, in µg/mL.

Example cases with answers are listed next.
INSERT INTO measurements (compound, numeric_value) VALUES
  ('Cc1c(CNC2CCC(O)CC2)cc(-c2ccc(Cl)cc2)n1-c1ccc(Cl)cc1 (stereo not given)', 16),
  ('Cc1c(CNCC2CCCCC2)cc(-c2ccc(Cl)cc2)n1-c1ccc(Cl)cc1', 4),
  ('Cc1c(CNC(C)C)cc(-c2ccc(Cl)cc2)n1-c1ccc(Cl)cc1', 8),
  ('Cc1c(CNC2CCCCC2)cc(-c2ccc(F)cc2)n1-c1ccc(Cl)cc1', 8),
  ('Cc1ccc(C)c(-n2c(-c3ccc(Cl)cc3)cc(CNC3CCCCC3)c2C)c1', 4),
  ('Cc1c(CNC2CCCCCC2)cc(-c2ccc(Cl)cc2)n1-c1ccc(C(C)C)cc1', 4),
  ('Cc1c(CNC2CCCCC2)cc(-c2ccc(Cl)cc2)n1-c1ccc(F)cc1', 8),
  ('Cc1c(CNC2CCC(NC(=N)N)CC2)cc(-c2ccc(Cl)cc2)n1-c1ccc([N+](=O)[O-])cc1 (stereo not given)', 8),
  ('Cc1cc(CNC2CCCCC2)c(C)n1-c1ccc(Cl)cc1', 64),
  ('Cc1c(CNC2CCC(N)CC2)cc(-c2ccc(Cl)cc2)n1-c1ccc(Cl)cc1 (stereo not given)', 8);

Give me MIC for each of these compounds, listed below.
1. Cc1cc(CNCCCCCCCCNC(=N)N)c(C)n1-c1ccc(Cl)cc1
2. Cc1c(CNC2C3CC4CC(C3)CC2C4)cc(-c2ccc(Cl)cc2)n1-c1ccc(Cl)cc1 (stereo not given)
3. C[C@H]1COc2c(N3CCN(C)CC3)c(F)cc3c(=O)c(C(=O)O)cn1c23.C[C@H]1COc2c(N3CCN(C)CC3)c(F)cc3c(=O)c(C(=O)O)cn1c23.O [LEVOFLOXACIN]
4. Cc1c(CNC2CCCCC2)cc(-c2ccc(Cl)cc2)n1-c1ccccc1C(F)(F)F
5. Cc1c(CNC2CCCCCC2)cc(-c2ccc(Cl)cc2)n1-c1ccc(Cl)cc1
6. Cc1c(CNC2CCCCC2)cc(-c2ccc(Cl)cc2)n1-c1ccc(Cl)cc1
7. Cc1c(CNC2CCCCCC2)cc(-c2ccc(Cl)cc2)n1-c1ccc(F)cc1

## Result
[8, 4, 8, 8, 4, 4, 8]

## Task Tell me the measured MIC of `Cc1c(CNC2CCCCC2)cc(-c2ccc(Cl)cc2)n1-c1ccc([N+](=O)[O-])cc1` , please.
## Result 16
